These data points were gathered from patent US9624241B2.

Recorded pIC50, one value per entry.
tgt: BRD4-BD1 (Homo sapiens (Human), UniProt O60885)
assay: BRD4 AlphaScreen Assay (Example A2), BRD4-BD1
Type: binding
protocol-conditions: Assay A2, AlphaScreen, BRD4-BD1; read-out: BRD4 BD-1 enzyme IC50
pIC50: −log10 of the molar value. Counter-ions that a name gives are not always drawn.
assay-readout: pIC50

# compound, assay-readout, recorded-value
rows = [
    ("COn1c(=O)n2c3c(c(-c4c(C)noc4C)ccc31)CCC2c1ccccn1 (stereo not shown) [Example 122, trifluoroacetate]", "pIC50", "6.00 to 7.00"),
    ("CCNc1nc2c(F)cc(-c3c(C)noc3C)c3c2n1C(c1cccnc1)CO3 (stereo not shown)", "pIC50", "> 7.00"),
    ("Cc1noc(CO)c1-c1ccc2[nH]c(=O)n3c2c1OCC3c1ccccn1 (racemic)", "pIC50", "5.00 to 6.00"),
    ("Cc1noc(C)c1-c1cc(CNC(=O)Cc2ccccc2)c2[nH]c(=O)n3c2c1OC[C@@H]3c1ccccn1", "pIC50", "> 7.00"),
    ("CC(=O)N1CCCC(c2nc3ccc(-c4c(C)noc4C)c4c3n2[C@@H](c2ccccn2)CO4)C1 (mixture of isomers)", "pIC50", "> 7.00"),
    ("Cc1noc(C)c1-c1ccc2nc(N3CC[C@@H](N(C)C(=O)CC#N)C3)n3c2c1OC[C@@H]3c1ccccn1", "pIC50", "> 7.00"),
    ("Cc1noc(C)c1-c1cc(CNc2ccccc2)c2[nH]c(=O)n3c2c1OCC3c1ccccn1 (stereo not shown)", "pIC50", "5.00 to 6.00"),
    ("Cc1noc(C)c1-c1ccc2ncn3c2c1OC[C@@H]3c1ccccn1", "pIC50", "> 7.00"),
    ("Cc1noc(C)c1-c1cc(C#N)c2[nH]c(=O)n3c2c1OCC3c1ccccc1 (stereo not shown)", "pIC50", "> 7.00"),
    ("CC(=O)N1CCC(c2nc3ccc(-c4c(C)noc4C)c4c3n2[C@@H](c2ccccn2)CO4)C1 (single isomer, unassigned; diastereomer 1) [Example 113A]", "pIC50", "> 7.00"),
]
